Sourced from patent US20240352066A1

Test: Percent acetonitrile at elution during RP-HPLC purification (hydrophobicity)
Format: physicochemical
Settings: percent acetonitrile at the time of elution from HPLC
Where a SMILES comes first, the peptide text is derived from it. [ ]: non-standard residue; d: D form. N(tridecyl)Gly = CCCCCCCCCCCCCNCC(=O)O; Gly(N-2-aminoethyl) = NCCNCC(=O)O; Gly(N-cPent) = O=C(O)CNC1CCCC1; N(iPr)Gly = CC(C)NCC(=O)O; Nleu = CC(C)CNCC(=O)O; Nlys = NCCCCNCC(=O)O
% ACN for assorted compounds
measurement.name: % ACN (%)

compound	experimental.value
CCCCCCCCCCCCCNCC(=O)N(CC(=O)N(CCCCN)CC(=O)N(CCN)CC(=O)N(CC(N)=O)CC1CCCO1)CC1CCCO1 (stereo not shown)	67.3
CCCCCCCCCCCCCNCC(=O)N(CC(=O)N(CCCCN)CC(=O)N(CCN)CC(=O)N(CC(N)=O)C(C)C)C(C)C [Compound 8] (H-[N(tridecyl)Gly][N(iPr)Gly][Nlys][Gly(N-2-aminoethyl)][N(iPr)Gly]-NH2)	66.7
CCCCCCCCCCCCCNCC(=O)N(CC(=O)N(CCCCN)CC(=O)N(CCN)CC(=O)N(CC(N)=O)C1CCCC1)C1CCCC1 [Compound 11] (H-[N(tridecyl)Gly][Gly(N-cPent)][Nlys][Gly(N-2-aminoethyl)][Gly(N-cPent)]-NH2)	68.1
CCCCCCCCCCCCCNCC(=O)N(CC(=O)N(CCCCN)CC(=O)N(CCN)CC(=O)N(CC(N)=O)CC(C)C)CC(C)C [Compound 9] (H-[N(tridecyl)Gly][Nleu][Nlys][Gly(N-2-aminoethyl)][Nleu]-NH2)	68.1
